# Lookup of reported IC50 keyed by entry
# System: MRC-5 human embryonal lung fibroblast cells
# Test details: Antiproliferative MTT assay, MRC-5 non-tumor cells
# Format: cell-based
# Experimental parameters: 72 h, four parallel measurements, read-out: IC50 (µM) ± SD MRC-5
Field note: include the unit after the figure.

>>> df
                                   molecule  quantity_measured  reported_value
0  N.N.[Cl][Pt][Cl] [cisplatin, reference compound]               IC50         2.36 µM

// moving on: another record for IC50
Q: Form entry - test system: MRC-5 human embryonal lung fibroblast cells; read-out: IC50; molecule: C#Cc1c(C)c(O)cc2c1CCc1c-2ccc(O)c1C
A: 26 µM
